# Protocol description: folding stability dG unfold from trypsin proteolysis; higher = more stable
Measured endpoint: folding stability dG unfold

1. SAGGSAKKVRIEIERNADGTLRITVTLPDGTKKEITVDKPGMTLEEIAKKLGLPEGAEITEIERVPSAGGSA [r15_167_TrROS_Hall]: 2.97 kcal/mol
2. SAGGSAGGSAGSSILSVVEEDPETGLRVVLSPVSDVPVRIVTKRIPEKEEIKVLEVERLPSAGGSAGGSAGG [r11_1066_JUSTAS]: -0.603 kcal/mol
3. SAGGSAGGSAGKAESGDNAITLTLPGGHKVTIPNLPPNEPVWVKLNNRWVKIGDLKVNPKSAGGSAGGSAGG [r11_16_TrMRF]: -0.131 kcal/mol
4. SAGGSAGGSAGMVLPRPDGSLVVITEHPDGTVTVTFAPPDKPITIEVPKEEPVDIRVFPLSAGGSAGGSAGG [r11_164_TrMRF]: 1.39 kcal/mol
5. SAMPEKRFYTYEIPIPPGFKADEPFVGTVTLEEKTLPIKIGSIPDVPPDATVRLTVDLDTAEFRVELLPSAG [r14_554_TrMRF]: 0.91 kcal/mol

----------
# Protocol description: folding stability dG unfold from chymotrypsin proteolysis; higher = more stable
Measured endpoint: folding stability dG unfold (kcal/mol)

1. SAGGSAGGPPDIVTLPIWIGGLKVEIMVYPDGSVTIMFRFPDWYYMITFPLKNGKIEIEWVPLKSAGGSAGG [r6_555_TrROS]: 3.54
2. SAGGSAGGSAGMTIQIEILTTGDLEETKKKLEEELKKKYPSSLKVIIKLSHVPASEAPSDLGSAGGSAGGSA [r18_498_JUSTAS]: 1.19
3. SAGGSAGGSMIFFPNITKEEFEEIFRKKGYKVKRYPSTNVIEVTGKDGKPIKAVVIPVSPEEFSAGGSAGGS [r12_211_TrMRF]: 0.618
4. SAGGSAMTITEDGTLTLEIKVPEDAPEATVKVTVLTDGKTLGEADPATGKVTLKVPPDVEVKVEVASAGGSA [r15_180_TrMRF]: 1.87
5. SAGMKIKITLPNGAEFESNPETGKIEVIDPETGKPLIAYIPKDRPDIAFIFDPDNPKPLFEVKIDEIYPSAG [r5_761_TrMRF]: 1.27
6. SVNPATQVVTVTREVTYPVPPSQGPISEEEAREAVEAELAARGWTLREVRVEYEGDTVTVTAVAERPAAASA [r9_1134_JUSTAS]: 1.13

----------
# Protocol description: folding stability dG unfold from chymotrypsin proteolysis; higher = more stable
Measured endpoint: folding stability dG unfold

1. SAGGSAGGSAGGATFKPGETVRVEVEVELRVFKVDEETGEIVEETETVTVRVEVEVRLESAGGSAGGSAGGS [r10_122_TrROS_Hall]: 2.32 kcal/mol
2. SAMSLEDMTPEELEELVKELIEKLREELEKEGKTIKPGETIEIEIEVKGKKLKIKITVDKDGNIKIEVESAG [r14_501_TrROS_Hall]: 3.03 kcal/mol
3. SAGGSAGGSITPEEAKALAEEIKKALGVPDVEVLEIRVERDPERDFYTADIVIRLPDGSVIRASAGGSAGGS [r12_508_TrMRF]: 1.04 kcal/mol
4. SAGGSAGGPEIKVLEVRKLPDGSFEFIVEVPPGDAEKIKSGTVVKIKFGDKEYDVTVEVIPTEGSAGGSAGG [r6_372_TrMRF]: 2.52 kcal/mol
5. SAGGSAGGSAGMKVLVLRIRIERPEEELSEEDRAKLPPVRIEIELVEVELPPEVEVREEESAGGSAGGSAGG [r17_310_TrROS_Hall]: 3.86 kcal/mol
6. SAGGSAGGMVTIASITFEEDPEGGITVTVYLPSNGKTITVPVPADTPEAEARARAEAAARAYAASAGGSAGG [r6_628_JUSTAS]: 1.49 kcal/mol
7. SAKKPKKVIEVTIVLPLEELKNMSLEELLKKILEELGIKEGEKVKIEVKLEEVEIDGKKYLVITVRIELSAG [r14_334_TrROS_Hall]: 2.69 kcal/mol
8. SAGGSIETIAERARDLARELNPDDGKEYPITIEIRDPENNRPIRIKISVRYDPDGKIKKVKFTKFEPYSAGG [r13_770_TrROS]: 1.04 kcal/mol
9. SAGGSAGGSAGGGVEVLSAERRRIPETGLVLVVIREKEPLKPIVVLMPEEDAVVFLKHFSAGGSAGGSAGGS [r10_988_TrMRF]: 0.92 kcal/mol
10. SAGGSAGGSAGKRRIYILGMDTVQVAEYLRDTGPDIKVEVFNPGQPMEEFQDNYDIVIFVSAGGSAGGSAGG [r17_225_TrROS]: 2.33 kcal/mol
11. SAGGSSSMVTRTPSTSTVTVKRGNGPVTVSLPTTVVTRPDGSRTLETTVDTKDPAGNPAATTVTPAPSAGGS [r16_581_JUSTAS]: 0.98 kcal/mol
12. SAENGKWVEVELPIEIWMGNDQLDNFIEEARDIARKHGFEITDIPIKYEPSPDGYRRATIPVKITVPLPSAG [r14_109_TrROS]: 1.06 kcal/mol
13. SAGGSAEIPPGAKLEIDEMSFDPGNGRIEMMFKIEDPDGEPLWQIRVSWEFNPENGKMKLDIEIMPSAGGSA [r15_1028_TrROS]: 3.8 kcal/mol
